- Tested on: Providencia stuartii
- PROTOCOL SUMMARY: Tested in vitro for inhibitory activity against gram negative bacteria Providencia stuartii CNUR 5 strain
- Assay type: functional
Entries and their measured MIC follow.
QUANTITY NAME: MIC

| SMILES RECORD | QUANTITY NAME | RESULT |
| --- | --- | --- |
| CC(C)(C)n1cc(C(=O)O)c(=O)c2cc(N)c(N3CCc4ccccc43)cc21 | MIC | 4 µg/mL |
| Nc1cc2c(=O)c(C(=O)O)cn(C3CC3)c2c(F)c1N1CCSCC1 | MIC | 0.5 µg/mL |
| CC(C)(C)n1cc(C(=O)O)c(=O)c2cc(N)c(N3CCSCC3)cc21 | MIC | 4 µg/mL |
| Nc1cc2c(=O)c(C(=O)O)cn(-c3ccc(F)cc3)c2cc1N1CCSCC1 | MIC | 4 µg/mL |
| O=C(O)c1cn(C2CC2)c2c(F)c(N3CCSCC3)c(F)cc2c1=O | MIC | 0.12 µg/mL |
| CN1CCN(c2nc3c(c(N)c2N)c(=O)c(C(=O)O)cn3C2CC2)CC1 | MIC | 0.5 µg/mL |
| CN1CCN(c2cc3c(cc2N)c(=O)c(C(=O)O)cn3C2CC2)CC1 | MIC | 8 µg/mL |
| N#CCN1CCN(c2cc3c(cc2N)c(=O)c(C(=O)O)cn3C2CC2)CC1 | MIC | 2 µg/mL |
| CN1CCN(c2c(N)cc3c(=O)c(C(=O)O)cn(C4CC4)c3c2F)CC1 | MIC | 4 µg/mL |
| CN1CCN(c2cc3c(c(N)c2N)c(=O)c(C(=O)O)cn3C2CC2)CC1 | MIC | 128 µg/mL |
